Experiment: Biodistribution of 99mTc-labeled compounds in nude mice with AR42J tumor xenografts
Assay type: in vivo
Conditions: nude, mouse, spleen, iv, total radioactivity; 99mTc-labeled compound, i.v., 90 minutes post-injection; read-out: Spleen
*1 amine or outer side, *2 acyl side, *3 side chain or, on linkers, in order; H or OH if unused. Where a SMILES comes first, the peptide text is derived from it. Bridges are numbered along the chain shown (N, C = ends). Roman numbers before positions name the chains, in order. [ ]: non-standard residue; d: D form. ξ: configuration not given here. Phe(4-NH2) = Nc1ccc(C[C@H](N)C(=O)O)cc1; NMehCys = CN[C@@H](CCS)C(=O)O; Thr(3ξ) = CC(O)[C@H](N)C(=O)O; Dap = NC[C@H](N)C(=O)O; X1 = O=C(C[*:1])[*:2]
assay-metric: tissue uptake dose at 1.5 h (%ID)
Numbers only, in %ID.

Query :: Return reported tissue uptake dose at 1.5 h; argument: CC(O)[C@H](NC(=O)[C@H](CS)NC(=O)[C@H](Cc1ccc(N)cc1)NC(=O)[C@@H](N)CNC(=O)CSCC[C@H]1C(=O)N[C@@H](Cc2ccc(O)cc2)C(=O)N[C@H](Cc2c[nH]c3ccccc23)C(=O)N[C@@H](CCCCN)C(=O)N[C@@H](C(C)O)C(=O)N[C@@H](Cc2ccccc2)C(=O)N1C)C(=O)N[C@@H](CO)C(=O)O (stereo partly shown) (I: cyclo(F[NMehCys]Y[dW]K[Thr(3ξ)]) / II: H-[Dap][Phe(4-NH2)]C[Thr(3ξ)]S-OH; linker I:2-II:1 via X1)
Result :: 0.21

* * *

Experiment: Biodistribution of 99mTc-labeled compounds in nude mice with AR42J tumor xenografts
Assay type: in vivo
Conditions: nude, mouse, kidneys, iv, total radioactivity; 99mTc-labeled compound, 90 minutes post-injection
*1 amine or outer side, *2 acyl side, *3 side chain or, on linkers, in order; H or OH if unused. Where a SMILES comes first, the peptide text is derived from it. Bridges are numbered along the chain shown (N, C = ends). Roman numbers before positions name the chains, in order. [ ]: non-standard residue; d: D form. ξ: configuration not given here. Phe(4-NH2) = Nc1ccc(C[C@H](N)C(=O)O)cc1; NMehCys = CN[C@@H](CCS)C(=O)O; Thr(3ξ) = CC(O)[C@H](N)C(=O)O; Dap = NC[C@H](N)C(=O)O; X1 = O=C(C[*:1])[*:2]
assay-metric: tissue uptake at 1.5 h
Please provide the amount together with its unit, number first.

Query :: Look up tissue uptake at 1.5 h: CC(O)[C@H](NC(=O)[C@H](CS)NC(=O)[C@H](Cc1ccc(N)cc1)NC(=O)[C@@H](N)CNC(=O)CSCC[C@H]1C(=O)N[C@@H](Cc2ccc(O)cc2)C(=O)N[C@H](Cc2c[nH]c3ccccc23)C(=O)N[C@@H](CCCCN)C(=O)N[C@@H](C(C)O)C(=O)N[C@@H](Cc2ccccc2)C(=O)N1C)C(=O)N[C@@H](CO)C(=O)O (stereo partly shown) (I: cyclo(F[NMehCys]Y[dW]K[Thr(3ξ)]) / II: H-[Dap][Phe(4-NH2)]C[Thr(3ξ)]S-OH; linker I:2-II:1 via X1)
Result :: 4.8 %ID/g

* * *

System: SSTRs, NCI-H69 membranes
Assay: [125I]SST-14 binding to NCI-H69 cell membranes (SSTR affinity)
Design: species or system human
Details: inhibition of [125I]SST-14 binding; two-site fit; read-out: IC50 Values for Uncomplexed Compounds, NCI-H69 (first value)
Description: [^125I-Tyr^11] somatostatin-14 ([^125I]SST-14) was obtained from Amersham. Unlabeled somatostatin-14 was purchased either from BACHEM (Torrance, Calif.) or from Sigma Chemical Co. (St. Louis, Mo.). […] Cultured cells were first detached from plates with phosphate-buffered saline, pH 7.4, containing 2 mM EDTA, and centrifuged at 1,500×g for 10 min. […] Membrane protein concentration was determined spectroscopically using the bicinchonic acid (BCA) protein assay kit (Pierce Chemical Inc. (Rockford, Ill.). […]
assay-metric: IC50 (nM)
Answers are plain numbers, in nM.

# batch: return IC50 for each of the 2 compounds below
1. C[C@@H](O)[C@H](NC(=O)[C@H](CS)NC(=O)[C@H](Cc1ccc(N)cc1)NC(=O)[C@@H](N)CNC(=O)CSCC[C@H]1C(=O)N[C@@H](Cc2ccc(O)cc2)C(=O)N[C@H](Cc2c[nH]c3ccccc23)C(=O)N[C@@H](CCCCN)C(=O)N[C@@H]([C@@H](C)O)C(=O)N[C@@H](Cc2ccccc2)C(=O)N1C)C(=O)NC(CO)CO
2. C[C@@H](O)[C@@H]1NC(=O)[C@H](CCCCN)NC(=O)[C@@H](Cc2c[nH]c3ccccc23)NC(=O)[C@H](Cc2ccc(O)cc2)NC(=O)[C@H](CCSCC(=O)NC[C@H](N)C(=O)N[C@@H](CN)C(=O)N[C@@H](CS)C(=O)N[C@H](CO)[C@@H](C)O)N(C)C(=O)[C@H](Cc2ccccc2)NC1=O

Result ::
0.388
0.449

Data credit: patent US6358491B1
